- ASSAY PROTOCOL: S. cerevisiae growth inhibition in permissive medium (OD615), pilot counter-assay for S. cerevisiae lifespan shortening project, permissive growth control (AID 705)
- TEST PARAMETERS: OD615, 24 h, at 10 µM, hits give high values
Examples of compounds with documented growth inhibition follow.
Give the value, in units of %, as a plain number.

Worked cases, answers included:
# COMPOUND, UNIT STRING, RESULT NUMBER
data = [
    ("CC1(C)NC(=O)N(CC(O)COc2cccc(F)c2)C1=O (stereo unspecified)", "%", -3.19),
    ("O=c1c2cnn(-c3ccccc3)c2ncn1Cc1cccc(Cl)c1", "%", 2.21),
    ("Cc1nc2ccccc2c2oc(C(=O)NCCN3CCCCC3C)cc12 (stereo unspecified)", "%", -3.45),
    ("CC1=C(C(=O)N2CCOCC2)C(c2cccs2)NC(=O)N1 (stereo unspecified)", "%", 1.45),
    ("CC(=O)c1sc(NC(=O)c2ccccc2F)nc1C", "%", -10.4),
    ("O=C(Cn1cnc2c(nnn2Cc2ccc(Cl)cc2)c1=O)N1CCN(c2ccccc2)CC1", "%", -7.16),
    ("CC1Cc2ccccc2C(=O)N1 (stereo unspecified)", "%", 0.58),
    ("CN(C)S(=O)(=O)c1ccc(C(=O)Nc2ccc(F)cc2F)cc1", "%", -14.5),
    ("CCCCOCCCNC(=O)c1ccc(NC(C)=O)cc1", "%", -9.19),
    ("Cc1ccc(N2C(=O)c3oc4ccccc4c(=O)c3C2c2cccc(O)c2)nc1 (stereo unspecified)", "%", -6.7),
]

From here, focus on the item given below.
Field request: growth inhibition | item: "COc1ccc(OC)c(NC(=O)CSc2nnc(Cc3cccn3C)n2-c2ccc(F)cc2)c1"
4.57

====

- ASSAY PROTOCOL: S. cerevisiae growth inhibition in restrictive medium, OD615, pilot screen, restrictive growth control, yeast lifespan reduction project (AID 706);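 further: modified DeaD lifespan yeast strain shifted to restrictive glucose medium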
- TEST PARAMETERS: OD615, 48 h, at 10 µM
Activity calls are given as the source filed them.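 Rule for the calls: active = growth inhibition above a set limit, 3 SD over mean compound inhibition, in both replicates (cut at about 43% in these data); inconclusive = above the limit in only one replicate; inactive = at or below the limit in both replicates.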
Use one of these outcomes when replying: active, inactive

# MOLECULE, GROUP
measured = [
    ("COCCNC(=O)Cn1cc2c(n1)CCCCC2", "inactive"),
    ("Cc1cc(C)c2c(=O)n(CC(=O)N3CCC(Cc4ccccc4)CC3)sc2n1", "active"),
    ("CCOCCn1c(SCC(=O)OCc2ccccc2)nc2c1c(=O)[nH]c(=O)n2C", "inactive"),
    ("COC(=O)C1(C#N)C(c2ccccc2)C1(C(=O)OC)C(=O)OC (stereo unspecified)", "inactive"),
    ("N#Cc1cnc2sc3ccccc3n2c1=N", "inactive"),
    ("Cc1cc(NC(=O)CSc2nc3c(c(=O)n2Cc2ccccc2)SC(C)C3)no1 (stereo unspecified)", "inactive"),
    ("Cc1nnc(NC(=O)CSc2nc3c(c(=O)n2C)SC(C)C3)s1 (stereo unspecified)", "inactive"),
    ("CC1Cc2nc(SCC(N)=O)n(Cc3ccccc3)c(=O)c2S1 (stereo unspecified)", "inactive"),
    ("COc1ccc(CCn2c(-c3ccco3)nc3ccccc3c2=O)cc1OC", "inactive"),
    ("CC(C)=C(NC(=O)c1ccccc1)C(=O)NCCCC(=O)O", "inactive"),
]

What was the test verdict on "Cn1c(NC(=O)c2ccccc2F)cc(=O)n(C)c1=O" ?
inactive

What was the test verdict on "O=C(Cn1ncc2c(=O)oc3ccccc3c21)NCCCN1CCCC1=O" ?
inactive

====

- ASSAY PROTOCOL: RAM signaling pathway blockade in yeast – S. cerevisiae, Pdr1DBD-CYC8 efflux-inhibited sensitized strain, primary screen (AID 1298);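 further: 0% = DMSO untreated cells without growth and 100% = 10 µM 1-NA-PP1 full growth; higher means more yeast growth rescued from 5-FOA killing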
- TEST PARAMETERS: S. cerevisiae cbk1-as DSE1-URA3 strain, 5-FOA growth OD615, 2 d; at 50 µM; hits give high values
EXPERIMENTAL READOUT: RAM network inhibition (%)
Give the value, in units of %, as a plain number.

Field request: RAM network inhibition | item: "COc1ccc(NC(=O)CC2CCCCC2)cc1OC"
6.64

====

- ASSAY PROTOCOL: HUVEC growth inhibition – cell-based, human, primary screen (AID 575);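 further: 100% = median of untreated cell wells with 0.1% DMSO on each plate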
- TEST PARAMETERS: HUVEC proliferation, CellTiter-Glo luminescence, 72 h; at 10 µM; hits give low values
Examples of compounds with documented viability follow.
Give the value, in units of %, as a plain number.

Worked cases, answers included:
# COMPOUND, viability (%)
data = [
    ("COc1ccc(NC(=O)CN(c2ccc(C(C)C)cc2)S(=O)(=O)c2c(C)noc2C)cc1OC", 58.7),
    ("O=C(NCCC1=CCCCC1)C1CCN(S(=O)(=O)c2cccc3cccnc23)CC1", 89),
    ("Cc1ccc(C(=O)NC(Cc2c[nH]c3ccccc23)C(=O)O)o1 (stereo unspecified)", 87.3),
    ("Cn1c(SCC(=O)Nc2ccc(F)cc2)nnc1-c1cccnc1", 96.5),
    ("COC(=O)Cn1c(=NC(=O)CSCC(=O)Nc2cc(C)on2)sc2ccccc21", 90.4),
]

Field request: viability | item: "CCN(CC)c1ccc2cc(-c3nc4ccccc4[nH]3)c(=O)oc2c1"
20.9

Field request: viability | item: "CC(C)C(=O)Nc1ccc(-c2nc3cccnc3o2)cc1"
128

Field request: viability | item: "O=C(Cn1ncc2c(=O)oc3ccccc3c21)NCCCN1CCCC1=O"
93.1

Field request: viability | item: c1nc(NCC2CCCO2)c2[nH]cnc2n1 (stereo unspecified)
93.4

Field request: viability | item: O=C(Cn1nc(Cc2cccnc2)c2ccccc2c1=O)NCC1CCCO1 (stereo unspecified)
99.2

Field request: viability | item: "O=C(O)c1ccc(-c2ccc(O)c(F)c2)cc1"
92.8

====

- ASSAY PROTOCOL: reduced viability of SK-BR-3 breast cancer cells – cell-based, 24 h, human, pilot screen (AID 572);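 further: compound exposure lasted between 18 and 24 h rather than exactly 24 h; 100% = carrier-treated control wells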
- TEST PARAMETERS: SK-BR-3 viability, CellTiter-Glo luminescence, at 10 µM, hits give low values
Hi! Could you tag entries with viability below 90% as Satisfied, and those at or above as Not satisfied? Much appreciated.

Examples from the recorded data:
# MOLECULE, GROUP
data = [
    ("Cc1onc(-c2ccccc2)c1C(=O)NCc1cccnc1", "Not satisfied"),
    ("Cc1ccc(Cn2c(CN3CCOCC3)nc3c2c(=O)n(C)c(=O)n3C)cc1", "Satisfied"),
    ("CCOc1ccc(N(CC(=O)Nc2ccc(C)c(C)c2)S(=O)(=O)c2c(C)noc2C)cc1", "Not satisfied"),
    ("COc1cc(C(=O)N2CCN(c3cc(Cl)ccc3Cl)CC2)cc(OC)c1OC", "Satisfied"),
    ("O=C(NC1CCCCCC1)c1c(F)c(F)c(F)c(F)c1F", "Satisfied"),
    ("Cc1cn2c(-c3ccc(Cl)cc3)nnc2s1", "Not satisfied"),
    ("COc1ccccc1CNC(=O)CCn1c(=O)[nH]c2ccsc2c1=O", "Not satisfied"),
    ("O=C(Nc1cnn(Cc2ccc(Cl)cc2Cl)c1)c1noc2c1CCCC2", "Not satisfied"),
]

Criterion: viability strictly below 90%. Is it met by "COc1ccccc1OCCNC(=O)c1cccs1" ?
Satisfied

Criterion: viability strictly below 90%. Is it met by "CSc1cccc(NC(=O)C2CCN(S(=O)(=O)c3ccc(F)cc3)CC2)c1" ?
Satisfied

Criterion: viability strictly below 90%. Is it met by "COc1cccc(N(C(C)=O)c2nc(C)cc(C)c2C#N)c1" ?
Not satisfied

Criterion: viability strictly below 90%. Is it met by COc1ccc(-n2c(=O)c3c4c(sc3n3cnnc23)CC(C)CC4)cc1 (stereo not drawn) ?
Not satisfied

Criterion: viability strictly below 90%. Is it met by O=C1NC(=O)C(CC(=O)N(Cc2ccco2)C2(C(=O)NC3CCCC3)CCCCC2)N1 (stereo not drawn) ?
Not satisfied

====

Examples of compounds with documented Her2 level follow.
- MEASURED ON: Receptor tyrosine-protein kinase erbB-2 (Homo sapiens)
- ASSAY PROTOCOL: Her2 expression decrease, cell viability multiplex – SKBR3 breast tumor cells, AlphaScreen, ATP viability, primary screen (AID 461);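 further: lower value means less Her2 protein in the cells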
- TEST PARAMETERS: 18-24 h, at 10 µM, hits give low values
Give the value, in units of %, as a plain number.

# COMPOUND, Her2 level / %
records = [
    ("CC1=C(C(=O)OCc2ccccc2)C(c2ccco2)n2ncnc2N1 (stereo not drawn)", 95),
]

From here, focus on the item given below.
Field request: Her2 level | item: S=c1[nH]nc(-c2ccccc2)n1C1C=CCCC1 (stereo not drawn)
104

====

- ASSAY PROTOCOL: S. cerevisiae growth inhibition in restrictive medium, OD615, pilot screen, restrictive growth control, yeast lifespan reduction project (AID 706);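 further: modified DeaD lifespan yeast strain shifted to restrictive glucose medium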
- TEST PARAMETERS: OD615, 48 h, at 10 µM, hits give high values
EXPERIMENTAL READOUT: growth inhibition (%)
Give the value, in units of %, as a plain number.

Worked cases, answers included:
# MOLECULE, growth inhibition / %
measured = [
    ("CN(C)S(=O)(=O)c1ccc(C(=O)OCCCN=C2NS(=O)(=O)c3ccccc32)cc1", -15.2),
    ("COc1cccc(-c2nc(CS(=O)(=O)CC(=O)N3CCN(c4ccccn4)CC3)c(C)o2)c1", -2.45),
    ("CSCCC(N=CC1=C(O)CC(C)(C)CC1=O)C(=O)O (stereo unspecified)", 1.57),
]

Field request: growth inhibition | item: COC(=O)C1=C(C)NC2=C(C(=O)CCC2)C1c1coc2ccccc2c1=O (stereo unspecified)
6.02

Field request: growth inhibition | item: "COc1ccccc1NC(=O)N(C1CCCC1)C1CCN(C(C)=O)CC1"
-27.4

Field request: growth inhibition | item: "O=C(O)c1ccc(-c2ccc(O)c(F)c2)cc1"
12.1

Field request: growth inhibition | item: "Cc1ccc2nc(NC(=O)Cn3cc4c(n3)CCCCC4)sc2c1"
10.6
